B1: TRAF3IP2 (parent)
chain: PRPPSNPPARGTLKTSNLPEELRK

- Variants of: B1
- assay_method_text: protein stability index of a GFP-peptide fusion (GPS, HEK-293T) (PSI 1-6); higher = more stable;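 also: lentivirally expressed fusions sorted by FACS into six bins by GFP to DsRed ratio, PSI derived from sequencing read proportions per bin multiplied by bin number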
- conditions: c terminus: a fixed tail appended
attribute_measured: protein stability index
Lab note: jot the number down without any unit.

Query: protein stability index; subject: PRPPSNPPARGTLKTSKLPEELRK
4.07

Field request: protein stability index | item: PRYPSNPPARGTLKTSNLPEELRK
4.7

What measured protein stability index goes with PRPPSNPPARGALKTSNLPEELRK ?
4.66

# input variant: PRPPSNPPNRGTLKTSNLPEELRK ; wanted: its protein stability index
4.95

So what does the record say about protein stability index for PRPPSNPPARGTLKCSNLPEELRK ?
4.72

Find the recorded protein stability index belonging to PRPPSNPPARGTLKTSNLTEELRK and report it.
4.14

Query: protein stability index; subject: PRPPSNPPARGTLKTSNLQEELRK
4.75

protein stability index lookup needed for PRPPSNPPARGTLDTSNLPEELRK , thanks.
5.37

For the variant shown here, PRPPVNPPARGTLKTSNLPEELRK , give the reported protein stability index.
4.76

Which protein stability index reading was recorded for the variant PRPPSNGPARGTLKTSNLPEELRK ?
4.58

What value of measured protein stability index is listed for PRPPSNRPARGTLKTSNLPEELRK ?
4.75

Which protein stability index value is on record for PRPPSNPPARGTIKTSNLPEELRK ?
4.6

Record request: protein stability index value, item PRPPLNPPARGTLKTSNLPEELRK
4.19

Report protein stability index for PRPPSNPPARRTLKTSNLPEELRK please.
3.85

Entry PRPPSNPPARPTLKTSNLPEELRK has what protein stability index?
4.42

protein stability index for PRPPSNPPARGTLKTSELPEELRK ?
5.13

Find the recorded protein stability index belonging to PRCPSNPPARGTLKTSNLPEELRK and report it.
5.15

Name the recorded protein stability index for PRPKSNPPARGTLKTSNLPEELRK .
4.91

Consider the variant shown here: PRPSSNPPARGTLKTSNLPEELRK What is its recorded protein stability index?
4.89

For PRPPSNPPARGNLKTSNLPEELRK , what is its reported protein stability index?
4.42

Entry PRPPSNPPARGTLITSNLPEELRK has what protein stability index?
4.82

// protein stability index lookup, key: PRPPSNPPARGTLKTSNLPEEHRK
5.11

What value of protein stability index has been recorded for this entry: PRPPSHPPARGTLKTSNLPEELRK
5.21

State the recorded protein stability index for this entry: PRPPSNPPAYGTLKTSNLPEELRK
4.89

Any idea what its protein stability index is? The variant is PRPPSNPPARGTLKTSNLPEEYRK
4.47

// returns reported protein stability index for input PRPPSNPPALGTLKTSNLPEELRK
4.96

Field request: protein stability index | item: PRPPSNPPAWGTLKTSNLPEELRK
4.76

Need protein stability index, item PRPPSNPPARGTLKTSNKPEELRK
5.26

Recorded protein stability index for PRPPSNPPARGTLKTSNLPEELWK , please?
3.42

Report protein stability index for PRPPSNPPARGTLKTSNYPEELRK please.
5.14

// lookup protein stability index for PEPPSNPPARGTLKTSNLPEELRK
4.85

Endpoint output: protein stability index of PRPPSNPPARGGLKTSNLPEELRK . Value?
4

# lookup: protein stability index of PRPPSNPPARGTLKTSNLPHELRK
3.96

Would you mind telling me what protein stability index value was observed for PRPPSNPPARGTLKTSNLYEELRK ?
3.54

Which protein stability index value belongs to PWPPSNPPARGTLKTSNLPEELRK ?
4.85

Looking for the measured protein stability index of KRPPSNPPARGTLKTSNLPEELRK , can you help?
4.63

What does the data say about its protein stability index? Entry: PRPPSGPPARGTLKTSNLPEELRK
4.65

What does the record list as protein stability index for PRPPSNFPARGTLKTSNLPEELRK ?
4.21

Value lookup for protein stability index; key = PRPPYNPPARGTLKTSNLPEELRK
3.84

Consider the variant shown here: PRPPSNPGARGTLKTSNLPEELRK What is its recorded protein stability index?
4.82

Consider the variant PRPPSNPPTRGTLKTSNLPEELRK and give its measured protein stability index.
5.3

Which value of protein stability index has been reported for PRPPSNPPARGTLKISNLPEELRK in the records?
4.14

// returns reported protein stability index for input PRPPSNPPARGTLKTSNLPIELRK
3.44

Which value of protein stability index has been reported for WRPPSNPPARGTLKTSNLPEELRK in the records?
4.76

I have this variant here, PRPPSNPPARGTLKTSNLPEELRC , and I need its recorded protein stability index.
4.9

Data request, read-out protein stability index, for PRPPSNPPGRGTLKTSNLPEELRK
4.84

# credit: the supplement of paper PMC10567573
